test system: Chenopodium album; assay: Herbicidal activity against Chenopodium album assessed as disease control at 1000 ppm treated in foliage during 15 to 20 days relative to control; type: functional
Hi there, I'd appreciate the recorded Activity for every entry that follows.

Here's what some known entries look like.
CCOc1ccc2sc(-c3ccccn3)nc2c1	60%
Clc1ccc2sc(-c3ccccn3)nc2c1	40%
c1ccc2oc(-c3nc4ccccc4s3)nc2c1	<39%

Give one value of Activity per listed molecule.
1. Clc1ccc2nc(-c3ccccn3)[nH]c2c1
2. O=[N+]([O-])c1ccc2[nH]c(-c3ccccn3)nc2c1
3. Cc1cccc2[nH]c(-c3ccccn3)nc12
4. CCOc1ccc2sc(-c3ccncc3)nc2c1

OUT:
["<39%", "<39%", "<39%", "<39%"]

====

test system: Pyricularia oryzae; assay: Antifungal activity against Magnaporthe oryzae after 7 days; format: functional; design: concentration or dose not given beside the values
measured-attribute: Activity

Please review the entries below; each comes with its answer.
Clc1ccc2nc(-c3ccccn3)[nH]c2c1	60%
O=[N+]([O-])c1ccc2[nH]c(-c3ccccn3)nc2c1	60%
COc1ccc2sc(-c3ccccn3)nc2c1	<39%
Cc1cccc2[nH]c(-c3ccccn3)nc12	40%
COc1ccc2[nH]c(-c3ccncc3)nc2c1	>80%

# per-item lookup of Activity; items listed below
1. c1ccc2nc(-c3nc4ccccc4s3)ccc2c1
2. Clc1ccc2sc(-c3ccccn3)nc2c1
3. c1ccc2nc(-c3nc4ccccc4o3)ccc2c1
4. FC(F)(F)c1ccc2sc(-c3ccccn3)nc2c1
5. COc1ccc2sc(-c3ccncc3)nc2c1

OUT:
1: <39%; 2: <39%; 3: <39%; 4: <39%; 5: <39%

# batch size: 2; output Activity per entry
1. c1ccc2oc(-c3ccncc3)nc2c1
2. Cc1ccc2nc(-c3ccccn3)[nH]c2c1

OUT:
["<39%", "60%"]

====

tested on: Chenopodium album; assay: Herbicidal activity against Chenopodium album assessed as disease control at 1000 ppm treated in foliage during 15 to 20 days relative to control; format: functional
measured-attribute: Activity

COc1ccc2sc(-c3ccncc3)nc2c1	<39%
c1ccc(-c2nc3ccccc3[nH]2)nc1	<39%
Cc1ccc2nc(-c3ccccn3)[nH]c2c1	60%

Provide each entry's Activity from the list below.
1. c1ccc(-c2nc3ccccc3o2)nc1
2. O=[N+]([O-])c1cccc2nc(-c3ccccn3)[nH]c12
3. c1ccc2nc(-c3nc4ccccc4s3)ccc2c1
4. FC(F)(F)c1ccc2sc(-c3ccccn3)nc2c1
5. c1ccc2nc(-c3nc4ccccc4o3)ccc2c1

OUT:
1. <39%
2. <39%
3. <39%
4. >80%
5. <39%

====

test system: Pyricularia oryzae; test: Antifungal activity against Magnaporthe oryzae after 7 days; type: functional; set-up: concentration or dose not given beside the values
measured-attribute: Activity

Observe how each entry below is paired with its result.
c1ccc(-c2nc3ccccc3[nH]2)nc1	<39%
c1ccc2oc(-c3nc4ccccc4s3)nc2c1	<39%
O=[N+]([O-])c1cccc2nc(-c3ccccn3)[nH]c12	40%
c1ccc(-c2nc3ccccc3o2)nc1	<39%
CCOc1ccc2sc(-c3ccncc3)nc2c1	<39%

Provide the reported Activity of each entry below, same order.
1. CCOc1ccc2sc(-c3ccccn3)nc2c1
2. Clc1cccc2nc(-c3ccccn3)[nH]c12

OUT:
1: <39%; 2: >80%
